Test system: human PDE4
Construct: PDE4 is partially purified from undifferentiated human monocytic cells (U-937) according to Thorpy et al. 1992 (J. Pharmacol. Exp. Ther. 263: 1195)
protocolSummary: IMAP FP in vitro enzymatic PDE4 inhibition assay
Type: biochemical
appliedConditions: PDE4 partially purified from human monocytic U-937 cells; 90 minutes at room temperature; fluorescence polarization
Catalogue of IC50 readings, one per entry.
Write down the numeric answer in µM and omit the unit.

Below, 5 compounds whose answers are already recorded.
>>> observed("CC[C@H]1OC(=O)[C@H](C)[C@@H](O[C@H]2C[C@@](C)(OC)[C@@H](O)[C@H](C)O2)[C@H](C)[C@@H](O[C@@H]2O[C@H](C)C[C@H](N(C)C)[C@H]2O)[C@](C)(OC)C[C@@H](C)C(=O)[C@H](C)[C@H]2[C@H](SCCn3cnc4c(N)ncc(C(=O)Nc5ccncc5)c43)C(=O)O[C@@]21C")
1
>>> observed("CC[C@H]1OC(=O)[C@H](C)[C@@H](O[C@H]2C[C@@](C)(OC)[C@@H](O)[C@H](C)O2)[C@H](C)[C@@H](O[C@@H]2O[C@H](C)C[C@H](N(C)C)[C@H]2O)[C@](C)(OC)C[C@@H](C)C(=O)[C@H](C)[C@H]2[C@H](SCCn3cnc4c(N)ncc(C(=O)Nc5c(Cl)cncc5Cl)c43)C(=O)O[C@@]21C")
0.008
>>> observed("CC[C@H]1OC(=O)[C@H](C)[C@@H](O[C@H]2C[C@@](C)(OC)[C@@H](O)[C@H](C)O2)[C@H](C)[C@@H](O[C@@H]2O[C@H](C)C[C@H](N(C)C)[C@H]2O)[C@](C)(OC)C[C@@H](C)C(=O)[C@H](C)[C@H]2[C@H](SCCN(C(=O)c3ccncc3)c3ccc(OC)c(OC4CCCC4)c3)C(=O)O[C@@]21C")
3.4
>>> observed("CC[C@H]1OC(=O)[C@H](C)[C@@H](O[C@H]2C[C@@](C)(OC)[C@@H](O)[C@H](C)O2)[C@H](C)[C@@H](O[C@@H]2O[C@H](C)C[C@H](N(C)C)[C@H]2O)[C@](C)(OC)C[C@@H](C)C(=O)[C@H](C)[C@H]2[C@H](SCCn3c(Nc4cccnc4)nc4c(N)ncnc43)C(=O)O[C@@]21C")
3.9
>>> observed("CC[C@H]1OC(=O)[C@H](C)[C@@H](O[C@H]2C[C@@](C)(OC)[C@@H](O)[C@H](C)O2)[C@H](C)[C@@H](O[C@@H]2O[C@H](C)C[C@H](N(C)C)[C@H]2O)[C@](C)(OC)C[C@@H](C)C(=O)[C@H](C)[C@H]2[C@H](SCCCn3cnc4c(N)ncc(C(=O)NCC(=O)OC)c43)C(=O)O[C@@]21C")
24.2

The reported IC50 of the compound CC[C@H]1OC(=O)[C@H](C)[C@@H](O)[C@H](C)[C@@H](O[C@@H]2O[C@H](C)C[C@H](N(C)C)[C@H]2O)[C@](C)(OC)C[C@@H](C)C(=O)[C@H](C)[C@H]2[C@H](SCCNc3c(C(=O)Nc4c(Cl)cncc4Cl)cnc4c3cnn4CC)C(=O)O[C@@]21C was 0.11
